Provenance of the data: PubChem BioAssay (NCATS)

Assay Remarks: qHTS for Inhibitors of Plasmodium falciparum (7G8) proliferation (AID 504316); also: nearly all actives have a fitted effect of over 65% in size
Run Conditions: P. falciparum 7G8 in erythrocytes, SYBR Green DNA, 72 h; series mostly up to 6.7 µM
Inconclusive results are not listed. Active and inactive are the calls of the source. Calls follow the shape of the dose curve; as a rule, active = well fitted inhibition curve with a large enough effect; inconclusive = small, poorly fitted or top-dose-only effect; inactive = flat fitted curve, though single readings scatter.
I would appreciate it if you answered using one of these outcomes: t = active, f = inactive

CC(C)C(=O)N[C@H]1CCCN1C(=O)C=Cc1ccccc1 f
C=CC[C@](C)(O)c1ccccc1 t
O=C1C2=C(C(=O)c3ccccc31)[C@H]1O[C@](c3ccsc3)(Cc3ccccc31)O2 t
CCOC(=O)CCN1C(=O)[C@@H]2[C@H]3[C@H](O)[C@H](O)CC(=NNC(=O)OCc4ccc(OC)cc4)[C@H]3CC[C@H]2C1=O f

# input for lookup
Please state the recorded outcome for this molecule: "OC[C@H]1O[C@H](c2ccccc2)C=C[C@H]1O"
f
